Target: human RORγt ligand binding domain (RORγt LBD) (Homo sapiens (Human))
Sequence (P51449 other isoform, or with tags, fused parts or gaps): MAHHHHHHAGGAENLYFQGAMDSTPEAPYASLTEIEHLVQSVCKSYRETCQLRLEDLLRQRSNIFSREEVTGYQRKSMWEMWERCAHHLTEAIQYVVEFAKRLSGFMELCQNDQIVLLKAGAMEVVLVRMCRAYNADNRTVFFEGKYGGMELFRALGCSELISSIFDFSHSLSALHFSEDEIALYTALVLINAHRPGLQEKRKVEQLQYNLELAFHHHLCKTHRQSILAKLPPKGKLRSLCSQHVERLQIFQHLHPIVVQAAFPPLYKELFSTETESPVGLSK
Test: RORγt ThermoFluor assay (thermal shift, binding affinity Kd)
Conditions: read-out: ThermoFluor Assay, Kd
ENDPOINT_LABEL: Kd (µM)

{"COMPOUND": "COc1nc2ccc(C(O)(c3cnc(C)n3C)c3cnc(C)n3C)cc2c(Cl)c1OCC1CCCN1C (centres unmarked) [Example 52]", "ENDPOINT_LABEL": "Kd", "ASSAY_RESULT": 2.9}

(a) COc1nc2ccc(C(O)(c3ccc(C(F)(F)F)nc3)c3cncn3C)cc2c(Cl)c1C1=CCN(C)CC1 (centres unmarked) [Example 33]
(b) COc1nc2ccc(C(O)(c3ccc(C)nc3C)c3cnnn3C)cc2c(Cl)c1OCCS(C)(=O)=O (centres unmarked) [Example 70a]
query: Hi! Which is lower in terms of Kd, the first one a or the second one b ? Label of pick, please.
result: b
(b: 3.3 µM, a: 4.8 µM)

###

Molecular target: human RORγt LBD fused to the DNA binding domain of the GAL4 protein (Homo sapiens (Human))
Sequence (P51449 258-518): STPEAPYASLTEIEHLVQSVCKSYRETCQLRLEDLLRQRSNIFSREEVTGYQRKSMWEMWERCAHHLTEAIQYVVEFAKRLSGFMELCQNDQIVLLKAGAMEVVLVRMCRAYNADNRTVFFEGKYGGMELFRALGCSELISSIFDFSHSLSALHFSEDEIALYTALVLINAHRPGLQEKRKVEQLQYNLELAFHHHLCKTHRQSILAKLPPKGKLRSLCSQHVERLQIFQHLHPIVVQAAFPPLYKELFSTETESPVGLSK
Experiment: RORγt (LBD) reporter assay in HEK293T cells
Format: cell-based
Conditions: @ 6 μM
ENDPOINT_LABEL: RORγt (LBD) Reporter Assay, % inhibition @ 6 μM (%)

(I) COc1nc2ccc(C(O)(c3ccc(C)nc3C)c3cnnn3C)cc2c(Cl)c1CN1CC(C(F)(F)F)C1 (single isomer, unassigned) [Example 114c]
(II) COc1nc2ccc([C@](O)(c3ccccc3)C3CCN(C(C)=O)CC3)cc2c(Cl)c1CC1CCOCC1
(III) COCCOc1c(OC)nc2ccc(C(O)(c3ccc(C(F)(F)F)nc3)c3cncn3C)cc2c1Cl (single isomer, unassigned) [Example 79b]
(IV) COCCOc1c(OC)nc2ccc(C(O)(c3ccc(C(F)(F)F)nc3)c3cncn3C)cc2c1Cl (single isomer, unassigned) [Example 79c]
query: Arrange items by their RORγt (LBD) Reporter Assay, % inhibition @ 6 μM values in increasing order. Lab note: final answer is the ordered label list.
result: II, IV, III, I
(II: −6%, IV: −2.5%, III: 30%, I: 72%)

###

Tested on: IL-17 production by CD4+ T cells under conditions which favor Th17 differentiation
Experiment: Human Th17 assay (IL-17 production by CD4 T cells)
Format: cell-based
ENDPOINT_LABEL: IC50 (nM)

(1) COc1nc2ccc(C(O)(c3cnc(C)n3C)C3CN(C(C)=O)C3)cc2c(Cl)c1CN1CCC(C(F)(F)F)CC1 (single isomer, unassigned) [Example 124c]
(2) COc1nc2ccc(C(O)(c3cnnn3C)c3cnc(C)n3C)cc2c(Cl)c1CN1CCC(C(F)(F)F)CC1 (single isomer, unassigned) [Example 106c]
query: Between 1 and 2 , whose measured IC50 reads higher? Indicate your choice by writing its label.
result: 1
(1: 35 nM, 2: 1.4 nM)

###

List of pIC50 values.
System: IL-17 production by CD4+ T cells under conditions which favor Th17 differentiation
Test: Human Th17 assay (IL-17 production by CD4 T cells)
Format: cell-based
Details: Homo sapiens
Formally, pIC50 is defined as -log10 of the concentration c, with c in mol/L.

query: Using IL-17 production by CD4+ T cells under conditions which favor Th17 differentiation as the test system, report measured pIC50 of COc1nc2ccc(C(O)(c3ccccc3)C3CCN(C(C)=O)CC3)cc2c(Cl)c1OC(C)C (single isomer, unassigned) [Example 84b] .
result: 8.27
